- System: Staphylococcus aureus (ATCC29213)
- assayExplanation: In-vitro anti-bacterial microtitre plate assay, IC90 determination, Staphylococcus aureus
- Assay type: cell-based
- cond: 90% inhibitory concentration for bacterial growth; Staphylococcus aureus ATCC29213; 24 hours, resazurin fluorescence
measurementLabel: IC90 STA 29213 (µg/mL)

| molecule | quantitativeReadout |
| --- | --- |
| COc1nc2ccc(-c3cccs3)cc2cc1C(O)(CCCCN(C)C)c1cccc2ccccc12 (stereo not drawn) [Compound 14] | 39.45 |
| COc1nc2ccc(-c3ccoc3)cc2cc1C(O)(CCCN(C)C)c1cccc2ccccc12 (stereo not drawn) [Compound 10] | 1.66 |
| COc1nc2ccc(-c3cccs3)cc2cc1C(O)(CCCN(C)C)c1cccc2ccccc12 (stereo not drawn) [Compound 13] | 1.53 |

---

- System: Streptococcus pneumoniae (ATCC6305)
- assayExplanation: In-vitro anti-bacterial microtitre plate assay, IC90 determination, Streptococcus pneumoniae
- Assay type: cell-based
- cond: 90% inhibitory concentration for bacterial growth; Streptococcus pneumoniae ATCC6305; 24 hours, resazurin fluorescence
Class boundaries, taken from values of IC90 SPN 6305, are as follows: A (below 3 µg/mL), B (3 µg/mL to below 10 µg/mL), C (10 µg/mL or more)

| molecule | class |
| --- | --- |
| COc1nc2ccc(-c3ccoc3)cc2cc1C(O)(CCCCN(C)C)c1cccc2ccccc12 (stereo not drawn) [Compound 11] | B |
| COc1nc2ccc(-c3ccoc3)cc2cc1C(O)(CCCN(C)C)c1cccc2ccccc12 (stereo not drawn) [Compound 10] | B |
| COc1ccccc1-c1ccc2nc(OC)c(C(O)(CCCCN(C)C)c3cccc4ccccc34)cc2c1 (stereo not drawn) [Compound 8] | C |
| COc1ccccc1-c1ccc2nc(OC)c(C(O)(CCCCCN(C)C)c3cccc4ccccc34)cc2c1 (stereo not drawn) [Compound 9] | B |
| COc1nc2ccc(-c3cc4ccccc4o3)cc2cc1C(O)(CCCN(C)C)c1cccc2ccccc12 (stereo not drawn) [Compound 19] | B |
| COc1nc2ccc(-c3cccs3)cc2cc1C(O)(CCCN(C)C)c1cccc2ccccc12 (stereo not drawn) [Compound 13] | A |
| COc1nc2ccc(-c3cccs3)cc2cc1C(O)(CCCCCN(C)C)c1cccc2ccccc12 (stereo not drawn) [Compound 15] | C |
| COc1ccccc1-c1ccc2nc(OC)c(C(O)(CCCN(C)C)c3cccc4ccccc34)cc2c1 (stereo not drawn) [Compound 7] | A |
| COc1nc2ccc(-c3cc4ccccc4o3)cc2cc1C(O)(CCCCCN(C)C)c1cccc2ccccc12 (stereo not drawn) [Compound 20] | A |

---

Each entry below lists one item and its recorded IC90 SPN 6305 value.
- Test system: Streptococcus pneumoniae (ATCC6305)
- assayExplanation: In-vitro anti-bacterial microtitre plate assay, IC90 determination, Streptococcus pneumoniae
- Format: cell-based
- cond: 90% inhibitory concentration for bacterial growth; Streptococcus pneumoniae ATCC6305; 24 hours, resazurin fluorescence

| compound | measureUnit | IC90 SPN 6305 |
| --- | --- | --- |
| COc1nc2ccc(Br)cc2cc1C(O)(CCCCN(C)C)c1cccc2ccccc12 (stereo not drawn) [Compound 2] | µg/mL | 9.85 |
| COc1nc2ccc(-c3ccccc3)cc2cc1C(O)(CCCCCN(C)C)c1cccc2ccccc12 (stereo not drawn) [Compound 6] | µg/mL | 10.07 |
| COc1nc2ccc(Br)cc2cc1C(O)(CCCCCN(C)C)c1cccc2ccccc12 (stereo not drawn) [Compound 3] | µg/mL | 10.13 |
